Tested on: dogs
Assay: Dosage required to raise mean arterial pressure (MAP) by 10%
Assay type: in vivo
Details: experimentally determined
Procedure: Nasal airway pressure was measured using a Validyne pressure transducer (Validyne Engineering, Northridge, CA) with a 2.25 cm H2O range membrane connected to a multipen recorder (Grass Instruments, Quincy, MA). […] Pressure was measured in the line with a constant flow rate (150 ml/min) of air. […] The dosage required for rats was calculated by proportionately adjusting the experimentally determined dog dosage to account for the lesser weight of the rats.
Would you kindly list Dosage required to raise MAP by 10%, Dog for each of these compounds?
Provide the measurement as a number trailed by its unit.

Lookup result for CNC[C@H](O)c1cccc(O)c1 [(-)-phenylephrine] ; measured Dosage required to raise MAP by 10%, Dog: 10 µg/kg

Lookup result for CN[C@@H](C)[C@H](O)c1ccccc1 [(-)-ephedrine] ; measured Dosage required to raise MAP by 10%, Dog: 100 µg/kg

Lookup result for CN[C@H](C)[C@@H](O)c1ccccc1 [(+)-ephedrine] ; measured Dosage required to raise MAP by 10%, Dog: 200 µg/kg

Lookup result for CN[C@@H](C)[C@@H](O)c1ccccc1 [(+)-pseudoephedrine] ; measured Dosage required to raise MAP by 10%, Dog: 200 µg/kg
